Molecular target: recombinant rat VEGF164 (rat) (UniProt P16612)
Test: Biacore SPR, VEGF immobilized, pH 5
This section presents binders with their documented koff values.
A number alone suffices; assume s⁻¹.

Worked cases, answers included:
>  <BINDER>
509-min (scFv, VL and VH tied by name; also called Protein Nr; 854) scFv: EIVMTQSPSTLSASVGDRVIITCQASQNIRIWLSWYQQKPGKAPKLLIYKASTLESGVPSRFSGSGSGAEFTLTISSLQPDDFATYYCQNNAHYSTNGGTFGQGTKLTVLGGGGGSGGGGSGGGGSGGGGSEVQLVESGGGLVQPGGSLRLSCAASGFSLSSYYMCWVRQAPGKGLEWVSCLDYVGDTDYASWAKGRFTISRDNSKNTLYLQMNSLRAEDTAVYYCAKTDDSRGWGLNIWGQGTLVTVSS

>  <PROPERTY_LABEL>
koff

>  <OBSERVED>
0.000844

$$$$
>  <BINDER>
578min_max T84N_V89L (scFv, the VH entry already carries T84N and V89L; tied by name; also called Protein No. 1008) scFv: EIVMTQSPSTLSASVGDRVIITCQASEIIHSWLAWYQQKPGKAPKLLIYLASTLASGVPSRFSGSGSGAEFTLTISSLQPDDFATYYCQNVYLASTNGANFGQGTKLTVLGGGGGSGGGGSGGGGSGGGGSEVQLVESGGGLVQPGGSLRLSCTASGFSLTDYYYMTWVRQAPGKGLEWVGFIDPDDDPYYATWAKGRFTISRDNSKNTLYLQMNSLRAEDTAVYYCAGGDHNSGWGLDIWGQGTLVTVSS

>  <PROPERTY_LABEL>
koff

>  <OBSERVED>
0.00152

$$$$

// moving on: another record for koff
# koff (binder: 578-min (scFv, also called EP578 min; Protein Nr; 820) scFv: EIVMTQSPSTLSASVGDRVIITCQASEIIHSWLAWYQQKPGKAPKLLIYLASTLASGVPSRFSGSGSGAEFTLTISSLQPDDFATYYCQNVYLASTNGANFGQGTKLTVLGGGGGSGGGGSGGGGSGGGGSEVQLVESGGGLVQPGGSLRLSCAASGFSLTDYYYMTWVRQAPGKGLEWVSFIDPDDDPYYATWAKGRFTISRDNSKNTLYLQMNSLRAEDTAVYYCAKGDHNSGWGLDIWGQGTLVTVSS ) is 0.0182
